Dear all, this message contains IC50 results, target or system Human KIF18A (1-376aa) (Homo sapiens).

Prompt line: Lab request: please report IC50 under test system Human KIF18A (1-376aa) (Homo sapiens) for O=C(Nc1cccc2c1nc1n2C2COC1C2)c1ccc(NS(=O)(=O)CCO)cc1N1CCC2(CC1)CC2 (stereo not drawn) [Compound 83]
Response line: < 500 nM

Prompt line: Find IC50 (Human KIF18A (1-376aa) (Homo sapiens)) for the entry O=C(Nc1cc2c(c(N3CCC(F)(F)CC3)c1)OCCC2)c1ccc(NS(=O)(=O)CCO)cc1N1CCC2(CC1)CC2 [Compound 60]
Response line: < 200 nM
